Measure: melting point (°C)
Please give a number only; it is taken to be in °C.

// known answers, use as guide
Compound	melting point [°C]
CC(C)CC1=C/C(=C/c2ccc(-c3ccccc3)o2)C(=O)O1	76
CCCCC(CC)CO (stereo not given)	-76
O=C(Cl)c1nc2ccccc2s1 [benzothiazole-2-carbonyl chloride]	114
Cc1nnc2n1-c1ccc(Cl)cc1C(c1ccccc1Cl)=NC2 [triazolam]	234

Return value of melting point for input CCCCCCCCCCCC(=O)OCCCC [N-butyl dodecanoate] , no commentary. -10

Return value of melting point for input `O=c1[nH]cc(C(F)(F)F)c(=O)[nH]1` , no commentary. 253

Return value of melting point for input `c1ccc(-c2nc3ccccc3nc2-c2ccc3ccccc3c2)cc1` , no commentary. 122

Return value of melting point for input C=CCCCC [1-hexene] , no commentary. -140

Return value of melting point for input `COc1ccc(OC)c(C=O)c1` , no commentary. 52

Return value of melting point for input `N#Cc1cccc(C(F)(F)F)c1` , no commentary. 16
